molecular target: Pro-neuregulin-1, membrane-bound isoform (Homo sapiens); experiment: NRG1 binders on small-molecule microarrays, primary screen, psychiatric disease protein project, biochemical, small-molecule microarray, fluorescence 635/667 (AID 1075); details: NRG1 binding, 635 nm fluorescence, higher = more signal;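 note: score combines 667 nm spot fluorescence with signal to noise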
Category | rule: reported composite z-score within range, see low = under 0.7, medium = from 0.7 up to 1, high = 1 and over

>  <compound>
COc1cc(NN2C(C(O)c3cc(OC)c(OC)c(OC)c3)C=CC3C(=O)N(c4ccccc4)C(=O)C32)cc(OC)c1OC (centres undefined)

>  <label>
high

$$$$

Using the reported composite z-score, which band applies to C=CCNC(=O)[C@H]1[C@@H]2C(=O)O[C@@H](c3ccccc3)[C@@H](c3ccccc3)N2[C@@H](c2ccc(OCCO)cc2)[C@]12C(=O)N(C(=O)OCCOC)c1ccc(C#Cc3ccc(OC)cc3)cc12 ?
low

Into which bin does this compound go? O=C1OCCC=C[C@H]2OC34C=CCN(c5ccc(Cl)cc5)C(=O)[C@H]3N(CCCCCCO)C(=O)[C@@H]4C12 (some centres undefined)
low

Into which category would you place NC(=O)N1C(=O)C2C(C1=O)C1C=C(CCCO)C2C(C2CC2)N1Cc1cccc(OC(F)(F)F)c1 (centres undefined) ?
high

Class label required: CC(C)CNC(=O)[C@@]1(c2ccc([N+](=O)[O-])cc2)CC(=O)N(C2CCCCC2)[C@@H]1c1ccc(CO)cc1
low

Field: class (composite z-score) — entry: CCOC(=O)C1=C[C@@H](C(C)(C)C)N(S(=O)(=O)c2ccc(C)cc2)[C@H]1c1ccc(C)cc1
medium

Numbers sourced from PubChem BioAssay.
